target entity: T1, human GIPR (glucose-dependent insulinotropic polypeptide receptor) (human, UniProt P48546 22-466)
T1 sequence (looked up): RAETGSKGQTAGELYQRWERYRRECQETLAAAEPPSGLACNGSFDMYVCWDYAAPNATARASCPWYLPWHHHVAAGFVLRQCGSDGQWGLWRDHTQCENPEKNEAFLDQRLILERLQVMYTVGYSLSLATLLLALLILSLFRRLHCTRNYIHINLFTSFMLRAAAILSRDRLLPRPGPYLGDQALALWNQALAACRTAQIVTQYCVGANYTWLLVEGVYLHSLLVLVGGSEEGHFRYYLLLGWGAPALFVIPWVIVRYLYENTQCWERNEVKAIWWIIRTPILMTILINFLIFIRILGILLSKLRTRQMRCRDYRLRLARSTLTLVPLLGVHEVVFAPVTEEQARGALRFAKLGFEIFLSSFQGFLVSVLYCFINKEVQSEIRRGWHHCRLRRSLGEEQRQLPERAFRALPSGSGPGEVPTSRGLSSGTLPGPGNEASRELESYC
test summary: cell-based or functional assay
*1 amine or outer side, *2 acyl side, *3 side chain or, on linkers, in order; H or OH if unused. Where no end group is shown, it is not given here. Side-chain parts run from the residue outwards. [ ]: non-standard residue; d: D form. The star is where a group is joined. C18 diacid = O=C(O)CCCCCCCCCCCCCCCCC(=O)*; γGlu = O=C(O)[C@H](CCC(=O)[*:2])N[*:1]; Decanoyl = CCCCCCCCCC(=O)*; AEEA = NCCOCCOCC(=O)O; Aib = CC(C)(N)C(=O)O
Each entry below carries its reported EC50 (nM) GIPR.

binder	EC50 (nM) GIPR
H[Aib]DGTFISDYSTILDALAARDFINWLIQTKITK([AEEA-AEEA-γGlu-C18 diacid])-OH [Compound 28]	0.071 nM
HADGTFTSDYST[Aib]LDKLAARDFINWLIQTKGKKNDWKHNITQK([AEEA-AEEA-γGlu-C18 diacid])-OH [Compound 27]	0.562 nM
HXDGTFISDYSTILDNLAARDFIEWLIQTKITK (Aib at position 2; K33 acylated with C10, K(C10); C-terminal amide (-NH2)) [Compound 9]	0.708 nM
H[Aib]EGTFISDYSTILDNLAARDFINWLIQTKITK(Decanoyl)-NH2 [Compound 11]	13.6 nM
HADGTFTSDYSTILDK([AEEA-AEEA-γGlu-C18 diacid])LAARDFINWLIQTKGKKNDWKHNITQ-OH [Compound 21]	0.398 nM
